# measured_on: LepB Δ2-76 (Escherichia coli (strain DH5α)) (UniProt P00803)
measured_attribute: IC50 of LepB cleavage of the fluorescent peptide Dabcyl-DAPPAKAA-Edans (FRET enzyme assay) (µg/mL)

// below: answered binders
binder	assay_value
GGGTWAAFEEGK [peptide 01]	1930
GGTWAAFE [peptide 05]	810
GGGTWAAIE [peptide 06]	3890
VGGGTWAAIEEGKL [peptide 04]	2340
AAFE [peptide 11]	1660
GGTWAAFNDV [peptide 03]	1210
TWAAFN [peptide 07]	1390

1. VGGGTWAAFETL [peptide 02]
2. TWAAIE [peptide 08]
From the recorded data, which exceeds the other in IC50 of LepB cleavage of the fluorescent peptide Dabcyl-DAPPAKAA-Edans (FRET enzyme assay): 1 or 2 ? Kindly give the label for the entry you pick.
1
(1: 1220 µg/mL, 2: 446 µg/mL)

Every entry's value here was drawn from paper PMC10269814.
